These data points were gathered from ChEMBL document CHEMBL1138545.

tested on: Escherichia coli; assay: Antibacterial activity against Escherichia coli ATTC 25922 after 24 hrs by the disk diffusion method; type: functional
Observed property: inhibition zone (IZ) (mm)
Reply numerically in mm, unit not repeated.

Solved cases below.
Substance smiles: CSc1ccc(Cc2nnc3sc(-c4ccc(-c5ccc(C)cc5)o4)nn23)cc1
Unit abbrev: mm
Value measured: 18

Substance smiles: CSc1ccc(Cc2nnc3sc(-c4ccc(-c5ccc([N+](=O)[O-])cc5)o4)nn23)cc1
Unit abbrev: mm
Value measured: 17

molecule `COc1ccc(-c2ccc(-c3nn4c(Cc5ccc(SC)cc5)nnc4s3)o2)cc1` , inhibition zone (IZ) observed: 16

The molecule identified as `CSc1ccc(Cc2nnc3sc(-c4ccc(-c5ccc(Br)cc5)o4)nn23)cc1` registered its inhibition zone (IZ) at 11

Please fill in: inhibition zone (IZ) reported for `CSc1ccc(Cc2nnc3sc(-c4ccc(-c5ccc(Cl)cc5[N+](=O)[O-])o4)nn23)cc1` = 19

So, `CSc1ccc(Cc2nnc3sc(-c4cc(Cl)ccc4Cl)nn23)cc1` ? Its inhibition zone (IZ) was 12

Entry under test: `CSc1ccc(Cc2nnc3sc(-c4ccc(Cl)c(Cl)c4Cl)nn23)cc1` . Its inhibition zone (IZ) was 19

Just so you know, measured inhibition zone (IZ) for `CSc1ccc(Cc2nnc3sc(-c4ccc([N+](=O)[O-])cc4)nn23)cc1` came out at 17

###

system: Trichophyton mentagrophytes; assay: Antifungal activity against Trichophyton mentagrophytes after 3 to days by serial plate dilution method; type: functional; conditions: Trichophyton mentagrophytes
Reported values of MIC for individual entries
# do not omit the unit; it follows the number

Solved cases (3 shown):
Substance smiles: CSc1ccc(Cc2nnc3sc(-c4ccc(F)cc4)nn23)cc1
Value measured: 12.5 µg/mL
//
Substance smiles: CSc1ccc(Cc2nnc3sc(-c4cc(F)c(Cl)cc4Cl)nn23)cc1
Value measured: 6 µg/mL
//
Substance smiles: CSc1ccc(Cc2nnc3sc(-c4ccc([N+](=O)[O-])cc4)nn23)cc1
Value measured: 25 µg/mL

Looking up `CSc1ccc(Cc2nnc3sc(-c4ccc(-c5ccc(Br)cc5)o4)nn23)cc1` , I found its MIC recorded as 6 µg/mL

The reported MIC of the molecule `CSc1ccc(Cc2nnc3sc(-c4ccc(-c5ccc(C)cc5)o4)nn23)cc1` was 12.5 µg/mL

###

Listed molecules paired with reported inhibition zone (IZ)
test system: Escherichia coli; assay: Antibacterial activity against Escherichia coli ATTC 25922 after 24 hrs by the disk diffusion method; format: functional
Numbers only; they are read as mm.

Here is how some molecules turned out for inhibition zone (IZ).
Substance smiles: CSc1ccc(Cc2nnc3sc(-c4ccc(F)cc4)nn23)cc1
Value measured: 19

Substance smiles: CSc1ccc(Cc2nnc3sc(-c4ccc(O)cc4)nn23)cc1
Value measured: 10

Substance smiles: CSc1ccc(Cc2nnc3sc(-c4ccc(-c5cc(Cl)ccc5Cl)o4)nn23)cc1
Value measured: 16

Substance smiles: CSc1ccc(Cc2nnc3sc(-c4ccc(-c5ccc(Cl)cc5)o4)nn23)cc1
Value measured: 20

Substance smiles: CSc1ccc(Cc2nnc3sc(Cc4ccccc4)nn23)cc1
Value measured: 11

From here, focus on the item given below.
In plain terms, `CSc1ccc(Cc2nn3c(Cc4ccc(SC)cc4)nnc3s2)cc1` has a documented inhibition zone (IZ) of 16
